Reference source: patent US9181281B2

Recorded pIC50 by entry
molecular target: hPEPT1 (Homo sapiens, UniProt P46059); assay: [3H]Gly-Sar uptake inhibition in HeLa/hPEPT1 cells; format: cell-based; parameters: expressed in transfected cells; host or cells: HeLa; details: HeLa/hPEPT1 cells; mean ± sd, n = 2; read-out: IC50 of [3H]Gly-Sar uptake inhibition
Sequence (P46059 whole entry): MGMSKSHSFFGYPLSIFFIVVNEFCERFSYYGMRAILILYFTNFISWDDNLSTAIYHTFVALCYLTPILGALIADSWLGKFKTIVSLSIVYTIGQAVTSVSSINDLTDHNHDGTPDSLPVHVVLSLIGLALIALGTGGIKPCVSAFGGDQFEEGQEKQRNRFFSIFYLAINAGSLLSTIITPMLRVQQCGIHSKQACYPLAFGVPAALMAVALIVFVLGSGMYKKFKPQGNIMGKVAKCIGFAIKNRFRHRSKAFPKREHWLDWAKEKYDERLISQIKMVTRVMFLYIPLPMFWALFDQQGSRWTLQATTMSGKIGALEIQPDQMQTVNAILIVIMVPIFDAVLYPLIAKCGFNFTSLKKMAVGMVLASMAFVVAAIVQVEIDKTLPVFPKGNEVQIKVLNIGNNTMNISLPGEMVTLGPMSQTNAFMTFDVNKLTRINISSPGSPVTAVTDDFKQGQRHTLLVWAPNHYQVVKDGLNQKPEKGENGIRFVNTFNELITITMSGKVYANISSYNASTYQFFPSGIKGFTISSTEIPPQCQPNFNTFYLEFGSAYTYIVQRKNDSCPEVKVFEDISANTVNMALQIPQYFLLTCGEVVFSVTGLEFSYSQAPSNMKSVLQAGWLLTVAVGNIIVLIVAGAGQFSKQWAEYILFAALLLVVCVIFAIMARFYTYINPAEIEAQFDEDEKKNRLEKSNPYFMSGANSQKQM
pIC50 here is simply -log10 of the concentration when that concentration is written in mol/L.

Look over these answered cases.
CC[C@H](C)[C@H](N)C(=O)OC(C)OC(=O)C1=C[C@H](NC(=N)N)[C@@H](NC(C)=O)[C@H]([C@H](O)[C@H](O)CO)O1 (stereo partly drawn) [Zan-Ile, zanamivir ethoxyisoleucine ester]    2.52
CCC(CC)O[C@@H]1C=C(C(=O)OC(C)OC(=O)[C@@H](N)[C@@H](C)CC)C[C@H](NC(=N)N)[C@H]1NC(C)=O (stereo partly drawn) [GOC-Ile]    3.35

Here is another compound to look at.
Query block: Tell me the measured pIC50 of CCC(CC)O[C@@H]1C=C(C(=O)O)C[C@H](NC(=N)N)[C@H]1NC(C)=O [GOC, guanidino oseltamivir carboxylate] , please.
Result block: 2.18
